Test system: ROCK2
Settings: concentration: 1 μM, replicates: in singlicate; n = 1;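 also: KINOMEscan kinase panel screen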
Hi, to clarify the labels: Met covers %Inh from 7% upward, Not met covers anything below 7%.

**Q:** Please tell me: is the compound COc1cc(Nc2nccc(-c3c(-c4cccc(NC(=O)c5c(F)cccc5F)c4)nn4ccccc34)n2)cc(OC)c1OC at or over 7% in terms of %Inh?
**A:** Not met

**Q:** Would you kindly repeat that for Cl.Cl.NCC(C(=O)Nc1cc(Br)c(-c2ccnc3[nH]ccc23)s1)c1ccccc1 (stereo not shown) ?
**A:** Met

**Q:** Would you kindly repeat that for O=C(Nc1cccc(-c2nn3ccccc3c2-c2ccnc(Nc3cccc(F)c3)n2)c1)c1c(F)ccc(F)c1Cl ?
**A:** Met

**Q:** Would you kindly repeat that for C[C@@H](Oc1cc(-n2cnc3cc(-c4ccnc(NCCS(C)(=O)=O)c4)ccc32)sc1C(N)=O)c1ccccc1Cl ?
**A:** Not met

**Q:** Would you kindly repeat that for CC(C)c1nc(-c2cccc(NS(=O)(=O)c3c(F)cccc3F)c2F)c(-c2ccnc(Nc3ccc(N4CCOCC4)nc3)n2)s1 ?
**A:** Not met

**Q:** Would you kindly repeat that for Cl.Cl.NCC(NCc1ccc(-c2ccnc3[nH]ccc23)s1)c1ccccc1 (stereo not shown) ?
**A:** Met

* * *

Tested on: MRCKA
Settings: concentration: 1 μM, replicates: in singlicate; n = 1
// classify: if (%Inh < 1%) Yes else No

**Q:** Please check: %Inh for Nc1ncc(-c2cccnc2)c2scc(-c3ccc4c(c3)CCN4C(=O)Cc3ccccc3)c12 , strictly under 1% or not?
**A:** No

**Q:** Would you kindly repeat that for Nc1ncc(-c2ccc3nccc(-c4ccncc4)c3c2)cc1S(=O)(=O)N1CCOCC1 ?
**A:** Yes

**Q:** Would you kindly repeat that for CN1CCN(CCCNc2nccc(-c3c(-c4ccc(F)cc4)nn4cc(C(F)(F)F)ccc34)n2)CC1 ?
**A:** Yes

**Q:** Would you kindly repeat that for COc1cc2c(cc1OCCN1CCNCC1)ncc1c3ccc(C#N)cc3[nH]c21 ?
**A:** No

**Q:** Would you kindly repeat that for COc1cccc(C2=C(Nc3ccc(Cl)c(C(=O)O)c3)C(=O)NC2=O)c1 ?
**A:** No

**Q:** Would you kindly repeat that for COc1cccc(NC(=O)NC2CCN(c3ccnc(Nc4cc(OC)c(OC)c(OC)c4)n3)C2)c1 (centres unmarked) ?
**A:** No

**Q:** Would you kindly repeat that for COC(=O)Nc1nc2ccc(Oc3ccc(NC(=O)Nc4cc(C(F)(F)F)ccc4F)cc3)cc2n1C.Cl ?
**A:** Yes

* * *

For each entry below, report its %Inh value.
System: SNRK
Settings: concentration: 1 μM, replicates: in singlicate; n = 1
Could you give me the number in %? Just the number is fine.

**Q:** Please look up its %Inh: Cc1occc1-c1ncc(OC[C@@H](N)Cc2c[nH]c3ccccc23)cc1-c1ccc2[nH]nc(C)c2c1.O=C(O)C(F)(F)F
**A:** 0

**Q:** Would you kindly repeat that for CC(=O)Nc1nc2cnc(Nc3cc(NC(=O)c4cccc(C5(C#N)CC5)c4Cl)ccc3C)nc2s1 ?
**A:** 0

**Q:** Would you kindly repeat that for Nc1ncc(-c2ccc3nccc(-c4ccncc4)c3c2)cc1S(=O)(=O)N1CCOCC1 ?
**A:** 0

**Q:** Would you kindly repeat that for COc1cc(Nc2nccc(N3CCC(NC(=O)c4cc5ccccc5s4)C3)n2)cc(OC)c1OC (centres unmarked) ?
**A:** 0

**Q:** Would you kindly repeat that for CN1CCN(Cc2cccc(-c3ccc4c(Nc5ccc(Oc6ccccc6)cc5)ccnc4c3)c2)CC1 ?
**A:** 0

**Q:** Would you kindly repeat that for CCS(=O)(=O)c1ccc(OC)c(Nc2nccc(-c3c(-c4cccc(NC(=O)c5c(F)cccc5F)c4)nn4ncccc34)n2)c1 ?
**A:** 0

**Q:** Would you kindly repeat that for Cc1ccc(C)c(NC(=O)NC2CCN(c3ccnc(Nc4ccc(F)cc4)n3)C2)c1 (centres unmarked) ?
**A:** 0

**Q:** Would you kindly repeat that for CC(=O)N1CCN(c2ccc(Nc3nccc(-c4sc(C(C)C)nc4-c4cccc(NS(=O)(=O)c5cccc(Cl)c5)c4)n3)cn2)CC1 ?
**A:** 0

**Q:** Would you kindly repeat that for O=c1[nH]cc(-c2ccc(N3CCOCC3)cc2)c2sc(-c3cn[nH]c3)cc12 ?
**A:** 0

**Q:** Would you kindly repeat that for Nc1ncnc2c1nc(-c1ccccc1)n2-c1ccccc1 ?
**A:** 18

**Q:** Would you kindly repeat that for CCCCc1nn2ncccc2c1-c1ccnc(Nc2ccc(N3CCN(C)CC3)cc2)n1 ?
**A:** 0

**Q:** Would you kindly repeat that for COc1cccc(C2=C(Nc3ccc(Cl)c(C(=O)O)c3)C(=O)NC2=O)c1 ?
**A:** 100

**Q:** Would you kindly repeat that for COc1ccc(Nc2nccc(NCCNC(=O)c3cc4ccccc4s3)n2)cc1 ?
**A:** 2

**Q:** Would you kindly repeat that for CN1CCN(CCCNc2nccc(-c3c(-c4ccc(F)cc4)nn4cc(C(F)(F)F)ccc34)n2)CC1 ?
**A:** 0
